# tested-target: Angiotensin-converting enzyme 2 (Homo sapiens, UniProt Q9BYF1)
# Sequence (Q9BYF1 whole entry): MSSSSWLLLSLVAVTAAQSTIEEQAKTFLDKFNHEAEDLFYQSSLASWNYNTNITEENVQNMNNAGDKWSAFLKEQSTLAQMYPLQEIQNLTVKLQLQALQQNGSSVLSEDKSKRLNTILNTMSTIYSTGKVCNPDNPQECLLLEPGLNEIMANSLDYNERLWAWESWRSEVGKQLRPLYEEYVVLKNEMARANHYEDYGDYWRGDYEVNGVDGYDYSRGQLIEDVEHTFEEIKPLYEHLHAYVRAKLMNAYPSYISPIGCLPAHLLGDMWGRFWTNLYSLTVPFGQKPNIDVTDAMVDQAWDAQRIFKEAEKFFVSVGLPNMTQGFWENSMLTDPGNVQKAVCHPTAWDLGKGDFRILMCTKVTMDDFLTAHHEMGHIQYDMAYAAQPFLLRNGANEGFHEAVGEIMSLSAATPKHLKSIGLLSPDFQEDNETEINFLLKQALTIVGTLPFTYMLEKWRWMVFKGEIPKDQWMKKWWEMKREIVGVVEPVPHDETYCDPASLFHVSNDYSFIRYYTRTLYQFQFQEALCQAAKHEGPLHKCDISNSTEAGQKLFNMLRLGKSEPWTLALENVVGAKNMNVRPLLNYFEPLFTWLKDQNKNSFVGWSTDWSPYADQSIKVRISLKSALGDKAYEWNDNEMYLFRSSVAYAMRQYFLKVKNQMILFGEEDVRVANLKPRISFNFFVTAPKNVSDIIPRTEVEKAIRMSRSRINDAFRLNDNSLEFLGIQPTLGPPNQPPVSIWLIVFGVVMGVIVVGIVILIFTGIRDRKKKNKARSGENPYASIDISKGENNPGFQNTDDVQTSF
# test-method-notes: Inhibition of human recombinant ACE2 by fluorescence assay
# test-context: read-out: Ki app
assay-endpoint: log10 Ki (log10 of the value in nM)
// units: nM (pre-log); metric: Ki; scale: log10

Recorded results for 6 compounds are shown here.
INSERT INTO assay_data (molecular_string, assay_endpoint, reported_result) VALUES
  ('CC[C@@H](C)[C@H](S)C(=O)N[C@@H](Cc1ccccc1)C(=O)O', 'log10 Ki', 0.18),
  ('CC[C@@H](C)[C@H](S)C(=O)N[C@@H](Cc1ccc(OCc2ccc(F)c(F)c2)cc1)C(=O)O', 'log10 Ki', -0.07),
  ('CC[C@@H](C)[C@H](S)C(=O)N[C@@H](C)C(=O)O', 'log10 Ki', 1.15),
  ('CC[C@@H](C)[C@H](S)C(=O)N[C@@H](Cc1ccc(OCc2ccc(F)cc2)cc1)C(=O)O', 'log10 Ki', 0.40),
  ('CC[C@@H](C)[C@H](S)C(=O)N[C@@H](Cc1ccccc1-c1ccccc1)C(=O)O', 'log10 Ki', 1.57),
  ('CC[C@@H](C)[C@H](S)C(=O)N[C@@H](Cc1ccc2ccccc2c1)C(=O)O', 'log10 Ki', 0.38);

(Q) Recorded log10 Ki for CC[C@@H](C)[C@H](S)C(=O)N[C@@H](Cc1cccc(OCc2ccccc2)c1)C(=O)O , please?
(A) 0.38

(Q) Recorded log10 Ki for CC[C@@H](C)[C@H](S)C(=O)N[C@@H](Cc1ccc(OCc2ccccc2)cc1)C(=O)O , please?
(A) 0.43

(Q) Recorded log10 Ki for CC[C@@H](C)[C@H](S)C(=O)N[C@@H](Cc1ccc(OCc2cc(C(F)(F)F)cc(C(F)(F)F)c2)cc1)C(=O)O , please?
(A) 1.92

(Q) Recorded log10 Ki for CC[C@@H](C)[C@H](S)C(=O)N[C@@H](Cc1ccccc1OCc1ccccc1)C(=O)O , please?
(A) 0.78

(Q) Recorded log10 Ki for CC[C@@H](C)[C@H](S)C(=O)N[C@@H](Cc1cccc(-c2ccccc2)c1)C(=O)O , please?
(A) 0.34

(Q) Recorded log10 Ki for CC[C@@H](C)[C@H](S)C(=O)N[C@@H](Cc1ccc(OCc2ccc(F)cc2F)cc1)C(=O)O , please?
(A) 0.30

(Q) Recorded log10 Ki for CC[C@@H](C)[C@H](S)C(=O)NCC(=O)O , please?
(A) 1.95

(Q) Recorded log10 Ki for CC[C@@H](C)[C@H](S)C(=O)N[C@@H](Cc1cccc(Oc2ccccc2)c1)C(=O)O , please?
(A) 0.76

(Q) Recorded log10 Ki for CC[C@@H](C)[C@H](S)C(=O)N[C@@H](Cc1ccc(OCc2ccc(C(F)(F)F)cc2)cc1)C(=O)O , please?
(A) 1.54

(Q) Recorded log10 Ki for CC[C@@H](C)[C@H](S)C(=O)N[C@@H](Cc1cccc2ccccc12)C(=O)O , please?
(A) 0.34

(Q) Recorded log10 Ki for CC[C@@H](C)[C@H](S)C(=O)N[C@@H](Cc1ccc(O)cc1)C(=O)O , please?
(A) 0.11

(Q) Recorded log10 Ki for CC[C@@H](C)[C@H](S)C(=O)N[C@@H](Cc1ccc(Oc2ccccc2)cc1)C(=O)O , please?
(A) 0.34

(Q) Recorded log10 Ki for CC[C@@H](C)[C@H](S)C(=O)N[C@@H](Cc1ccccc1Oc1ccccc1)C(=O)O , please?
(A) -0.05

Reference for the values: ChEMBL document CHEMBL1141500
